- Tested on: HepG2
- experimental_protocol: Cytotoxicity against human HepG2 cells assessed as reduction in cell viability incubated for 48 hrs by MTS assay
- Assay type: toxicity, cell-based
- conditions: hepg2
Kindly state pEC50 for each of the entries shown.
In plain terms, pEC50 is the concentration in mol/L turned into minus its base-10 logarithm.

Form field: pEC50 recorded for "CCN1CCN(Cc2ccc(NC(=O)c3ccc(OC)c(NC(=O)c4cncc(-c5cccs5)c4)c3)cc2C(F)(F)F)CC1" with HepG2 (enter value)
5.49

Likewise for "CCN1CCN(Cc2ccc(NC(=O)c3cc(Br)cc(NC(=O)c4cncc(-c5cccs5)c4)c3)cc2C(F)(F)F)CC1" ?
5.36

Likewise for "CCN1CCN(Cc2ccc(NC(=O)c3cc(Cl)cc(NC(=O)c4cncc(-c5ccco5)c4)c3)cc2C(F)(F)F)CC1" ?
5.27

Likewise for "CCN1CCN(Cc2ccc(NC(=O)c3cc(Cl)cc(NC(=O)c4cncc(C#N)c4)c3)cc2C(F)(F)F)CC1" ?
4.96

Likewise for "CCN1CCN(Cc2ccc(NC(=O)c3cc(F)cc(NC(=O)c4cncc(-c5cccs5)c4)c3)cc2C(F)(F)F)CC1" ?
5.17

Likewise for "CCN1CCN(Cc2ccc(NC(=O)c3cc(Cl)cc(NCc4cncc(-c5cccs5)c4)c3)cc2C(F)(F)F)CC1" ?
5.25

Likewise for "CCN1CCN(Cc2ccc(NC(=O)c3cncc(NC(=O)c4cncc(-c5cccs5)c4)c3)cc2C(F)(F)F)CC1" ?
5.59
